These data points were gathered from the supplement of paper PMC3545927.

# system_tested: furin, P09958;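 note: purified furin at 1:10 enzyme:substrate in 50 mM HEPES pH 7.5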
# Sequence (P09958 whole entry): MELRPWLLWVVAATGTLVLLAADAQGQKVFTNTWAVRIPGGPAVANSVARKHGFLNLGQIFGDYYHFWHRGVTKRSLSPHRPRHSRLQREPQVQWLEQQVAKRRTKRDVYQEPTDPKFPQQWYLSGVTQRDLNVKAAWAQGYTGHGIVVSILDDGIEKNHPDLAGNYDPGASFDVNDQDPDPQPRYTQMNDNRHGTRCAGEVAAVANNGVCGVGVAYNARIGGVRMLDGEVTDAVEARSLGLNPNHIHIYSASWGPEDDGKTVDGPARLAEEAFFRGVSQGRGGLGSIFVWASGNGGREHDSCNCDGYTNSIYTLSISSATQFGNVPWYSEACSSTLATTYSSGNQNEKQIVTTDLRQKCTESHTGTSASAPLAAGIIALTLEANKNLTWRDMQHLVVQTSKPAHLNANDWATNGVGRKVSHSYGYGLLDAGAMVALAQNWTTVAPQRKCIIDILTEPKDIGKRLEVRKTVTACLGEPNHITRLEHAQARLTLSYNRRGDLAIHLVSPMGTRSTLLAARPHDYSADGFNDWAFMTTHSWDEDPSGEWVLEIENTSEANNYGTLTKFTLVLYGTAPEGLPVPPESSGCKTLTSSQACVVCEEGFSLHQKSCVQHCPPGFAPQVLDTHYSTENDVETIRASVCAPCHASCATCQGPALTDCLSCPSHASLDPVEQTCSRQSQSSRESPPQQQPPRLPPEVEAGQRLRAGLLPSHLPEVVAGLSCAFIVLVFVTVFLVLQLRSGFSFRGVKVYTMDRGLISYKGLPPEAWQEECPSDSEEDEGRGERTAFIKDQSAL
# test_name: furin cleavage Z-score vs untreated control; higher = more cleavage, active = 3.5 or more, inactive = 1 or less, 8 variable residues between constant flanks
# assay_setup: 15 min
Some of the results follow. No count for the full screen is at hand.
Label rule, in plain words: furin cleavage Z-score of 4 and up is met, under 4 is not met.

Could you tell me if the measured furin cleavage Z-score of CATTPKSGSWAGNASASA [HC51] reaches 4 or more? not met

Could you do the same for CARQRKSVNAAGNASASA [FS-2363] , please? not met

Could you do the same for CAVYVRVSRFAGNASASA [FS-518] , please? met

Could you do the same for CAVRARFVRFAGNASASA [FS-1433] , please? met

Could you do the same for CAAMGRGKRQAGNASASA [FS-1184] , please? met

Could you do the same for CAVYARVSRFAGNASASA [FS-517] , please? not met
